- Organism: Mus musculus
- TEST SUMMARY: In vitro percent P50 value of whole blood of murine was determined after incubation with compound (concentration 30 mM)
- Format: functional
Would you mind telling me the reported P50 of each entry?

INSERT INTO measurements (compound, observation_type, result) VALUES
  ('O=P1(O)OC2C3OP(=O)(O)OP(=O)(O)OC3C3OP(=O)(O)OP(=O)(O)OC3C2OP(=O)(O)O1.c1ccncc1.c1ccncc1.c1ccncc1.c1ccncc1.c1ccncc1 (stereo unspecified) [ITPP PYRIDINIUM SALT]', 'P50', '13%'),
  ('NC1CCCCCC1.NC1CCCCCC1.NC1CCCCCC1.NC1CCCCCC1.NC1CCCCCC1.NC1CCCCCC1.O=P1(O)OC2C3OP(=O)(O)OP(=O)(O)OC3C3OP(=O)(O)OP(=O)(O)OC3C2OP(=O)(O)O1 (stereo unspecified)', 'P50', '9%'),
  ('NC1CCCCCCC1.NC1CCCCCCC1.NC1CCCCCCC1.NC1CCCCCCC1.NC1CCCCCCC1.NC1CCCCCCC1.O=P1(O)OC2C3OP(=O)(O)OP(=O)(O)OC3C3OP(=O)(O)OP(=O)(O)OC3C2OP(=O)(O)O1 (stereo unspecified)', 'P50', '10%'),
  ('C1CNCCN1.C1CNCCN1.C1CNCCN1.C1CNCCN1.C1CNCCN1.C1CNCCN1.O=P1(O)OC2C3OP(=O)(O)OP(=O)(O)OC3C3OP(=O)(O)OP(=O)(O)OC3C2OP(=O)(O)O1 (stereo unspecified)', 'P50', '7%'),
  ('C1CNCCN1.C1CNCCN1.C1CNCCN1.O=P1(O)OC2C3OP(=O)(O)OP(=O)(O)OC3C3OP(=O)(O)OP(=O)(O)OC3C2OP(=O)(O)O1 (stereo unspecified) [ITPP TRIPIPERAZINIUM SALT]', 'P50', '8%');

Now look at this entry.
# P50 lookup, item CN(C)C1CCCCC1.CN(C)C1CCCCC1.CN(C)C1CCCCC1.CN(C)C1CCCCC1.CN(C)C1CCCCC1.CN(C)C1CCCCC1.O=P1(O)OC2C3OP(=O)(O)OP(=O)(O)OC3C3OP(=O)(O)OP(=O)(O)OC3C2OP(=O)(O)O1 (stereo unspecified)
20%

====

- TARGET OR SYSTEM: Hemoglobin beta chain (Mus musculus)
- TEST SUMMARY: In vitro percent P50 value of free haemoglobin of murine was determined after incubation with compound (concentration 60 mM)
- Type: functional
Provide the recorded P50 for the entries that follow.
One number for each entry, in %.

INSERT INTO measurements (compound, number) VALUES
  ('NC1CCCCCC1.NC1CCCCCC1.NC1CCCCCC1.NC1CCCCCC1.NC1CCCCCC1.NC1CCCCCC1.O=P1(O)OC2C3OP(=O)(O)OP(=O)(O)OC3C3OP(=O)(O)OP(=O)(O)OC3C2OP(=O)(O)O1 (stereo not given)', 76),
  ('NC1CCCCCCC1.NC1CCCCCCC1.NC1CCCCCCC1.NC1CCCCCCC1.NC1CCCCCCC1.NC1CCCCCCC1.O=P1(O)OC2C3OP(=O)(O)OP(=O)(O)OC3C3OP(=O)(O)OP(=O)(O)OC3C2OP(=O)(O)O1 (stereo not given)', 23),
  ('O=P1(O)OC2C3OP(=O)(O)OP(=O)(O)OC3C3OP(=O)(O)OP(=O)(O)OC3C2OP(=O)(O)O1.c1ccncc1.c1ccncc1.c1ccncc1.c1ccncc1.c1ccncc1 (stereo not given)', 100);

Would you mind telling me what P50 value was observed for CN(C)C1CCCCC1.CN(C)C1CCCCC1.CN(C)C1CCCCC1.CN(C)C1CCCCC1.CN(C)C1CCCCC1.CN(C)C1CCCCC1.O=P1(O)OC2C3OP(=O)(O)OP(=O)(O)OC3C3OP(=O)(O)OP(=O)(O)OC3C2OP(=O)(O)O1 (stereo not given) ?
81

====

- TARGET OR SYSTEM: Hemoglobin beta chain (Mus musculus)
- TEST SUMMARY: In vitro P50 value of free haemoglobin of murine was determined after incubation with compound (concentration 60 mM)
- Format: functional
OBSERVATION TYPE: P50 (Torr)
Numbers only, in Torr.

Previously resolved entries follow.
INSERT INTO assay_data (compound, u, number) VALUES
  ('NC1CCCCCCC1.NC1CCCCCCC1.NC1CCCCCCC1.NC1CCCCCCC1.NC1CCCCCCC1.NC1CCCCCCC1.O=P1(O)OC2C3OP(=O)(O)OP(=O)(O)OC3C3OP(=O)(O)OP(=O)(O)OC3C2OP(=O)(O)O1 (stereo not given)', 'Torr', 30.6),
  ('NC1CCCCCC1.NC1CCCCCC1.NC1CCCCCC1.NC1CCCCCC1.NC1CCCCCC1.NC1CCCCCC1.O=P1(O)OC2C3OP(=O)(O)OP(=O)(O)OC3C3OP(=O)(O)OP(=O)(O)OC3C2OP(=O)(O)O1 (stereo not given)', 'Torr', 43.8),
  ('CN(C)C1CCCCC1.CN(C)C1CCCCC1.CN(C)C1CCCCC1.CN(C)C1CCCCC1.CN(C)C1CCCCC1.CN(C)C1CCCCC1.O=P1(O)OC2C3OP(=O)(O)OP(=O)(O)OC3C3OP(=O)(O)OP(=O)(O)OC3C2OP(=O)(O)O1 (stereo not given)', 'Torr', 45.1);

What is its P50 for Hemoglobin beta chain (Mus musculus)? Entry: O=P1(O)OC2C3OP(=O)(O)OP(=O)(O)OC3C3OP(=O)(O)OP(=O)(O)OC3C2OP(=O)(O)O1.c1ccncc1.c1ccncc1.c1ccncc1.c1ccncc1.c1ccncc1 (stereo not given)
50
